// provenance: PubChem BioAssay AID1845211

test system: NCI-H322M multicellular tumor spheroids, viability (% test/control); test: Anticancer human tumor NCI-H322M cell line growth inhibition; settings: second compound 0.00949 µM; first compound 0.3 µM; stronger effect = lower value;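 further: spheroids exposed to compound for seven days before readout; 100% = DMSO vehicle control wells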
recordedEndpoint: viability, T/C (%)
Hi! Could you send only the number? It should be in %, unit omitted.

Consider Cn1ncnc1[C@H]1c2n[nH]c(=O)c3cc(F)cc(c23)N[C@@H]1c1ccc(F)cc1 + CC[C@@]1(O)C(=O)OCc2c1cc1n(c2=O)Cc2cc3c(CN(C)C)c(O)ccc3nc2-1 . Its measured viability, T/C is 73.7

The compound listed as CNCc1ccc(-c2cc(-c3nc(-c4ccc(S(=O)(=O)C(C)C)cc4)cnc3N)on2)cc1 + CC[C@@]1(O)C(=O)OCc2c1cc1n(c2=O)Cc2cc3c(CN(C)C)c(O)ccc3nc2-1 has a reported viability, T/C of 75.4

Reported viability, T/C ( Cc1sc2c(c1C)C(c1ccc(Cl)cc1)=NC(CC(=O)Nc1ccc(O)cc1)c1nnc(C)n1-2 (centres undefined) + CC[C@@]1(O)C(=O)OCc2c1cc1n(c2=O)Cc2cc3c(CN(C)C)c(O)ccc3nc2-1 ) = 118

# compound O=C(c1cc(Cc2n[nH]c(=O)c3ccccc23)ccc1F)N1CCN(C(=O)C2CC2)CC1 + CC[C@@]1(O)C(=O)OCc2c1cc1n(c2=O)Cc2cc3c(CN(C)C)c(O)ccc3nc2-1 ; its viability, T/C = 73

* * *

I'd be grateful if you could share measured viability, T/C for these entries.
system: NCI-H322M multicellular tumor spheroids, viability (% test/control); experiment: Anticancer human tumor NCI-H322M cell line growth inhibition; settings: second compound 0.0003 µM; first compound 0.1 µM; stronger effect = lower value;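 further: spheroids exposed to compound for seven days before readout; 100% = DMSO vehicle control wells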
Field: numeric (%). Do not append units.

Known value: NCI-H322M multicellular tumor spheroids, viability (% test/control) viability, T/C of the compound Cc1cc(C)c(CNC(=O)c2cc(-c3ccc(CN4CCOCC4)cc3)cc3c2cnn3C2CCCC2)c(=O)[nH]1 + COc1cc2c(cc1O)CCNC21CSC2c3c(OC(C)=O)c(C)c4c(c3C(COC1=O)N1C(O)C3Cc5cc(C)c(OC)c(O)c5C(C21)N3C)OCO4 equals 98.1

For the compound COc1cc(C)[nH]c(=O)c1CN1CCc2c(Cl)cc(C(OC)C3COC3)c(Cl)c2C1=O (centres undefined) + COc1cc2c(cc1O)CCNC21CSC2c3c(OC(C)=O)c(C)c4c(c3C(COC1=O)N1C(O)C3Cc5cc(C)c(OC)c(O)c5C(C21)N3C)OCO4 , the measured viability, T/C on NCI-H322M multicellular tumor spheroids, viability (% test/control) was 94.2

Tested on NCI-H322M multicellular tumor spheroids, viability (% test/control): [2H]c1nc(C)nc([2H])c1-c1cc(NC[C@@H](C)c2cccc3c(C(=O)NC)ccnc23)ncn1 + COc1cc2c(cc1O)CCNC21CSC2c3c(OC(C)=O)c(C)c4c(c3C(COC1=O)N1C(O)C3Cc5cc(C)c(OC)c(O)c5C(C21)N3C)OCO4 . Observed viability, T/C: 78.9

Readout viability, T/C for COc1ccc([C@@H](O)c2cc(-c3ncnc4cc(N5CCOCC5)ccc34)c(F)cc2Cl)nn1 + COc1cc2c(cc1O)CCNC21CSC2c3c(OC(C)=O)c(C)c4c(c3C(COC1=O)N1C(O)C3Cc5cc(C)c(OC)c(O)c5C(C21)N3C)OCO4 , test system NCI-H322M multicellular tumor spheroids, viability (% test/control), was 94.1
